src = ChEMBL document CHEMBL2440075

# Study Target: UniProt P46098
# Sequence (P46098 whole entry): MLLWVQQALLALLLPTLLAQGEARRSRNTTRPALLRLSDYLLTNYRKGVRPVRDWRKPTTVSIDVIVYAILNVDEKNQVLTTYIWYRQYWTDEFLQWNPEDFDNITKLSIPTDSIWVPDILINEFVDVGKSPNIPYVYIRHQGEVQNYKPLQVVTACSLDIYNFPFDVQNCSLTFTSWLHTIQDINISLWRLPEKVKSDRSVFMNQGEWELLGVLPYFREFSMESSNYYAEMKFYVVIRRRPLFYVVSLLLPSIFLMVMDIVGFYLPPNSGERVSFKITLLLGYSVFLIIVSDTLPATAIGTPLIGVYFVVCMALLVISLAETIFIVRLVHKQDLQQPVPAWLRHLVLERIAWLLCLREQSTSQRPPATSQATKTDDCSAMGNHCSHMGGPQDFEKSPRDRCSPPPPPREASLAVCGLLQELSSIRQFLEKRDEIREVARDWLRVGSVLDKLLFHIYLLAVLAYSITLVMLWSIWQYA
# Test Protocol: Displacement of [3H]GR65630 from human recombinant 5HT3 receptor expressed in HEKT cells
Reported values of Ki for individual entries
Parameter Measured: Ki (nM)

>>> readout_number("C/N=C1\\N(C)C(=O)/C(=C\\c2c[nH]c3cccc(Br)c23)N1C")
591
>>> readout_number("CN1C(=N)N(C)/C(=C/c2c[nH]c3ccccc23)C1=O")
3030
>>> readout_number("C/N=C1\\N(C)C(=O)/C(=C\\c2c[nH]c3ccc(Br)cc23)N1C")
2620
>>> readout_number("C/N=C1\\NC(=O)/C(=C\\c2c[nH]c3cccc(Br)c23)N1C")
5920
>>> readout_number("C/N=C1\\NC(=O)/C(=C\\c2c[nH]c3ccc(Br)cc23)N1C")
6180
>>> readout_number("CN1C(=N)N(C)/C(=C/c2c[nH]c3c(Br)cccc23)C1=O")
1220
>>> readout_number("CN1C(=N)N(C)/C(=C/c2c[nH]c3ccc(Br)cc23)C1=O")
1000
>>> readout_number("C/N=C1\\N(C)C(=O)/C(=C\\c2c[nH]c3ccccc23)N1C")
1510
>>> readout_number("CN1C(=N)N(C)/C(=C/c2c[nH]c3cccc(Br)c23)C1=O")
656

* * *

# Study Target: 5-hydroxytryptamine receptor 1D (Homo sapiens)
# Sequence (P28221 whole entry): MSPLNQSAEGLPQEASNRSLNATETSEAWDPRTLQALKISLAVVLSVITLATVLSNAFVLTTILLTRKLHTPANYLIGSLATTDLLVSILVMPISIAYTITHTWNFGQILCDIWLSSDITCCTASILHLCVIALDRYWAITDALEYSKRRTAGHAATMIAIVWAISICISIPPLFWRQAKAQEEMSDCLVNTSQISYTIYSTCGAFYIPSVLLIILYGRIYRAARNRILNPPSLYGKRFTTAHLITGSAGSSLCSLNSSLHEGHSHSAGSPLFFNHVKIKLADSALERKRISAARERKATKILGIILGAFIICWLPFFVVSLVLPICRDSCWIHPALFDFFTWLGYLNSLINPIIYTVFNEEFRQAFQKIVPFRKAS
# Test Protocol: Displacement of [3H]5-CT from human recombinant 5HT1D receptor expressed in HEKT cells
pKi: −log10 of the molar value.
Parameter Measured: pKi

>>> readout_number("C/N=C1\\N(C)C(=O)/C(=C\\c2c[nH]c3c(Br)cccc23)N1C")
5.05
>>> readout_number("C/N=C1\\N(C)C(=O)/C(=C\\c2c[nH]c3cccc(Br)c23)N1C")
5.59
>>> readout_number("CN1C(=N)N(C)/C(=C/c2c[nH]c3cccc(Br)c23)C1=O")
5.17

* * *

# Study Target: 5-hydroxytryptamine receptor 4 (Homo sapiens, UniProt Q13639)
# Sequence (Q13639 whole entry): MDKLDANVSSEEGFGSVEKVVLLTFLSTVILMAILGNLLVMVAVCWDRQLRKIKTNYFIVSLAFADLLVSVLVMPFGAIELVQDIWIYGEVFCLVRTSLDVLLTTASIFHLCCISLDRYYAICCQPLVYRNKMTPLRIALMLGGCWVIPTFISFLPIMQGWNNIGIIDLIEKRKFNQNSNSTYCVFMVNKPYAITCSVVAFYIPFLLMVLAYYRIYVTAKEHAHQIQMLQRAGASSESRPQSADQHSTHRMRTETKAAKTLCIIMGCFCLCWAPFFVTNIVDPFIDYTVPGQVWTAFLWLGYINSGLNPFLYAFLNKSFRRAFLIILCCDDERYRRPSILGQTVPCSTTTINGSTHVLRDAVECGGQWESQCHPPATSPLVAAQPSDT
# Test Protocol: Displacement of [3H]GR113808 from human recombinant 5HT4 receptor
pKi: −log10 of the molar value.
Parameter Measured: pKi

>>> readout_number("C/N=C1\\NC(=O)/C(=C/c2c[nH]c3cc(Br)ccc23)N1")
5.94
>>> readout_number("O=C1NC(=S)N/C1=C\\c1c[nH]c2cccc(Br)c12")
5.63
>>> readout_number("C/N=C1\\NC(=O)/C(=C/c2c[nH]c3cccc(Br)c23)N1")
6.33
>>> readout_number("C/N=C1\\NC(=O)/C(=C/c2c[nH]c3ccccc23)N1")
6.03
>>> readout_number("CSC1=NC(=O)/C(=C/c2c[nH]c3cc(Br)ccc23)N1")
5.28

* * *

Each record here notes measured Ki.
# Study Target: 5-hydroxytryptamine receptor 2B (Homo sapiens, UniProt P41595)
# Sequence (P41595 whole entry): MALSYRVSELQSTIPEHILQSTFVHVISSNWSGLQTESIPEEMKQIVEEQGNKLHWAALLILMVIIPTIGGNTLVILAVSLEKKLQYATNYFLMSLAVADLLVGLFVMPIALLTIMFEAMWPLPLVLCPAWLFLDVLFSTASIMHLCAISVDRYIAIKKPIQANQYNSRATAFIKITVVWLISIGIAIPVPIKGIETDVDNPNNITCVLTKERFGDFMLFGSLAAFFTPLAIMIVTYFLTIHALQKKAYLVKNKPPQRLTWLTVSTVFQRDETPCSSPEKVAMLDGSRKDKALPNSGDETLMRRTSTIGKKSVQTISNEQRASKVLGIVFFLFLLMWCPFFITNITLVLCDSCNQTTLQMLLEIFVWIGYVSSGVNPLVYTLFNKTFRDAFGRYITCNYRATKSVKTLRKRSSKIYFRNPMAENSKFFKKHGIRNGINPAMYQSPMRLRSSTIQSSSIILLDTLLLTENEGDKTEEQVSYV
# Test Protocol: Displacement of [3H]LSD from human recombinant 5HT2B receptor stably expressed in HEK cells
Parameter Measured: Ki (nM)

>>> readout_number("C/N=C1/N/C(=C/c2c[nH]c3ccc(Br)cc23)C(=O)N1C")
520
>>> readout_number("CN1C(=N)N(C)/C(=C/c2c[nH]c3c(Br)cccc23)C1=O")
349
>>> readout_number("CN1C(=N)N/C(=C/c2c[nH]c3cc(Br)ccc23)C1=O")
190
>>> readout_number("C/N=C1\\NC(=O)/C(=C\\c2c[nH]c3ccc(Br)cc23)N1C")
883
>>> readout_number("C/N=C1\\N(C)C(=O)/C(=C\\c2c[nH]c3ccc(Br)cc23)N1C")
1620
>>> readout_number("O=C1NC(=S)N/C1=C\\c1c[nH]c2cccc(Br)c12")
369
>>> readout_number("C/N=C1/N/C(=C/c2c[nH]c3ccccc23)C(=O)N1C")
5060
>>> readout_number("CN1C(=N)N(C)/C(=C/c2c[nH]c3ccccc23)C1=O")
4450
>>> readout_number("C/N=C1\\NC(=O)/C(=C\\c2c[nH]c3cc(Br)ccc23)N1C")
489
>>> readout_number("CN1C(=N)NC(=O)/C1=C\\c1c[nH]c2cccc(Br)c12")
784
>>> readout_number("C/N=C1\\NC(=O)/C(=C/c2c[nH]c3c(Br)cccc23)N1")
353
>>> readout_number("C/N=C1\\N(C)C(=O)/C(=C\\c2c[nH]c3ccccc23)N1C")
4550
>>> readout_number("C/N=C1\\NC(=O)/C(=C/c2c[nH]c3cccc(Br)c23)N1")
50
>>> readout_number("N=C1NC(=O)/C(=C\\c2c[nH]c3ccccc23)N1")
232
>>> readout_number("CN1C(=N)NC(=O)/C1=C\\c1c[nH]c2c(Br)cccc12")
1420
>>> readout_number("N=C1NC(=O)/C(=C\\c2c[nH]c3cccc(Br)c23)N1")
447
>>> readout_number("C/N=C1\\NC(=O)/C(=C\\c2c[nH]c3ccccc23)N1C")
716
>>> readout_number("C/N=C1\\NC(=O)/C(=C/c2c[nH]c3ccccc23)N1")
287
>>> readout_number("C/N=C1\\NC(=O)/C(=C\\c2c[nH]c3c(Br)cccc23)N1C")
661
>>> readout_number("O=C1NC(=S)N/C1=C\\c1c[nH]c2cc(Br)ccc12")
2710
>>> readout_number("C/N=C1\\N(C)C(=O)/C(=C\\c2c[nH]c3c(Br)cccc23)N1C")
965
>>> readout_number("C/N=C1/N/C(=C/c2c[nH]c3cc(Br)ccc23)C(=O)N1C")
1270
>>> readout_number("N=C1NC(=O)/C(=C\\c2c[nH]c3c(Br)cccc23)N1")
457
>>> readout_number("C/N=C1/N/C(=C/c2c[nH]c3c(Br)cccc23)C(=O)N1C")
839
>>> readout_number("CN1C(=N)N(C)/C(=C/c2c[nH]c3ccc(Br)cc23)C1=O")
1250
>>> readout_number("C/N=C1\\N(C)C(=O)/C(=C\\c2c[nH]c3cc(Br)ccc23)N1C")
2470
>>> readout_number("CN1C(=N)NC(=O)/C1=C\\c1c[nH]c2ccccc12")
964
>>> readout_number("CN1C(=N)N(C)/C(=C/c2c[nH]c3cccc(Br)c23)C1=O")
589
>>> readout_number("N=C1NC(=O)/C(=C\\c2c[nH]c3cc(Br)ccc23)N1")
269
>>> readout_number("C/N=C1/N/C(=C/c2c[nH]c3cccc(Br)c23)C(=O)N1C")
774
>>> readout_number("C/N=C1\\N(C)C(=O)/C(=C\\c2c[nH]c3cccc(Br)c23)N1C")
897
>>> readout_number("CN1C(=N)N/C(=C/c2c[nH]c3c(Br)cccc23)C1=O")
593
>>> readout_number("CN1C(=N)N(C)/C(=C/c2c[nH]c3cc(Br)ccc23)C1=O")
2670
>>> readout_number("CN1C(=N)N/C(=C/c2c[nH]c3cccc(Br)c23)C1=O")
228
>>> readout_number("CN1C(=N)N/C(=C/c2c[nH]c3ccc(Br)cc23)C1=O")
94

* * *

# Study Target: 5-hydroxytryptamine receptor 1A (Homo sapiens, UniProt P08908)
# Sequence (P08908 whole entry): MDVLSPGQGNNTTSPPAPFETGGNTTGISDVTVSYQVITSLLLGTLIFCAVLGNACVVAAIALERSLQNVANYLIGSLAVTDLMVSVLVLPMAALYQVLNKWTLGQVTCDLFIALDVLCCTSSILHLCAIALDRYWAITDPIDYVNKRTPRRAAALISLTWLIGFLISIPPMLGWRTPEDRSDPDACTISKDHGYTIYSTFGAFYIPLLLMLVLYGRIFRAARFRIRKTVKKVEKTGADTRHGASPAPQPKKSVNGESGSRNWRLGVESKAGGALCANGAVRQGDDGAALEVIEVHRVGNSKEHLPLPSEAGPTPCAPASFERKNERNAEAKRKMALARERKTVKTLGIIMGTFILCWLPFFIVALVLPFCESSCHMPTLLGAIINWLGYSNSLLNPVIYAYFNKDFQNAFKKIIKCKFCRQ
# Test Protocol: Displacement of [3H]way100635 from human recombinant 5HT1A receptor stably expressed in CHO cells
# Lookup of reported Ki keyed by entry
Parameter Measured: Ki (nM)

>>> readout_number("CN1C(=N)N(C)/C(=C/c2c[nH]c3ccc(Br)cc23)C1=O")
527
>>> readout_number("CN1C(=N)N/C(=C/c2c[nH]c3ccc(Br)cc23)C1=O")
7360
>>> readout_number("C/N=C1\\NC(=O)/C(=C\\c2c[nH]c3ccc(Br)cc23)N1C")
2620
>>> readout_number("O=C1NC(=S)N/C1=C\\c1c[nH]c2ccc(Br)cc12")
2750
>>> readout_number("CN1C(=N)N/C(=C/c2c[nH]c3cccc(Br)c23)C1=O")
3440
>>> readout_number("C/N=C1\\N(C)C(=O)/C(=C\\c2c[nH]c3ccc(Br)cc23)N1C")
2510
>>> readout_number("CN1C(=N)N(C)/C(=C/c2c[nH]c3cccc(Br)c23)C1=O")
315
